Test system: PC3M cells
assay-remarks: Tumor cell migration/invasion assay through 3D fibrillar collagen (Iuvo Single Microchannel Plate)
Format: cell-based
experimental-context: Homo sapiens, PC-3M, 120 h; PC3M cells in output port, 5 days; read-out: Proliferation output port IC50
experimental-endpoint: pIC50
FYI, pIC50 means -log10 of a concentration in mol per litre.

## Input If you can, please state the reported pIC50 value of N=c1c2c(-c3ccccc3)c(-c3ccccc3)n(Cc3ccccc3)c2ncn1[C@H]1CC[C@H](O)CC1 .
## Output 5.40

The record that follows has no pIC50 shown yet.
## Input If you can, please state the reported pIC50 value of N=c1c2c(-c3ccccc3)c(-c3ccccc3)n(Cc3ccccc3)c2ncn1C1CCOCC1 .
## Output 5.30
